Values from patent US10786575B2

PROCEDURE SUMMARY: Test Example 5: pharmacokinetics in beagles (plasma EPA, LC/MS/MS)
Parameters: species or system male beagles
STATED CONDITIONS: dog, in vivo, po, 600 mg
MEASUREMENT TYPE: AUC0-1 (µg·h/mL)

{"columns": ["MOLECULE", "OBSERVED RESULT"],
 "data": [
  ["CC/C=C\\C/C=C\\C/C=C\\C/C=C\\C/C=C\\CCCC(=O)OCC [Comp. Ex. 5, Ethyl eicosapentaenoate]", 11.3]
]}
